target: PDGF-AA (Homo sapiens, UniProt P04085 P04085:87-211); experiment: filter; +/-4; PBSM, 0.01% HSA, 37 C; comparable to random DNA; conditions: tags: R&D Systems, E. coli, long form of A-chain; chain copies: 2 (inferred); label: 5'-32P; three-way helix junction
PROPERTY NAME: Kd (nM)
Quick note: give the figure in nM, leave out the unit.

Q. Name the recorded Kd of the item TGGGAGGGCGCGTTCTTCGTGGTTACTTTTAGTCCCGT (ssDNA, 3'-3' linked T at 3' end) [20t] in your answer.
A. 47

Measured values drawn from patent US20030180744 for this set.
